tested on: XPO1; assay: Selectivity ratio of EC50 for cytotoxicity against human Jurkat cells assessed as suppression of cell viability to EC50 for inhibition of XPO1 in PMA/ionomycin-activated human Jurkat cells expressing IL-2 promoter reporter gene assessed as suppression of IL-2 transcriptional activity; type: toxicity, cell-based; conditions: read-out: Ratio EC50
Reported endpoint: selectivity ratio
Format: numeric value only, no unit, no commentary.

Below: 5 compounds and their reported selectivity ratio.
- Smiles input: "CC1=CC(=O)N(N(C)c2ccc(C(F)(F)F)c(N3CCC(F)(F)CC3)n2)C1=O"
  Target desc: "XPO1"
  Recorded measurement: 7.7
- Smiles input: "CC1=CC(=O)N(N(C)c2ccc(C(F)(F)F)c(N3CCCCCC3)n2)C1=O"
  Target desc: "XPO1"
  Recorded measurement: 14.4
- Smiles input: "CC1=CC(=O)N(Nc2nc(Cl)nn3cccc23)C1=O"
  Target desc: "XPO1"
  Recorded measurement: 10.7
- Smiles input: "CC1=CC(=O)N(N(C)c2nc(N3CCCC(F)(F)C3)nn3cccc23)C1=O"
  Target desc: "XPO1"
  Recorded measurement: 20.5
- Smiles input: "CC1=CC(=O)N(Nc2ccc(C(F)(F)F)c(N3CCC3)n2)C1=O"
  Target desc: "XPO1"
  Recorded measurement: 39.5

Requested field: selectivity ratio. Item: CC1=CC(=O)N(Nc2nc(-c3ccccc3)nn3cccc23)C1=O
6.2

Now this one: CC1=CC(=O)N(Nc2ccc(C(F)(F)F)c(N3CC4CC(C4)C3)n2)C1=O
5.2

Another: CC1=CC(=O)N(Nc2nc(-c3ccno3)nn3cccc23)C1=O
10.2

What about this compound? CC1=CC(=O)N(Nc2nc(-c3cccs3)nn3cccc23)C1=O
3.8

How about this compound: CC1=CC(=O)N(Nc2nc(N3CCCC(F)(F)C3)nn3cccc23)C1=O
3.7
